pIC50: −log10 of the molar value.
As an illustration, consider measured pIC50 for compounds on acetylcholinesterase of human erythrocyte origin (Homo sapiens).
Sequence (P22303 32-617 isoform P22303-2 limits assumed): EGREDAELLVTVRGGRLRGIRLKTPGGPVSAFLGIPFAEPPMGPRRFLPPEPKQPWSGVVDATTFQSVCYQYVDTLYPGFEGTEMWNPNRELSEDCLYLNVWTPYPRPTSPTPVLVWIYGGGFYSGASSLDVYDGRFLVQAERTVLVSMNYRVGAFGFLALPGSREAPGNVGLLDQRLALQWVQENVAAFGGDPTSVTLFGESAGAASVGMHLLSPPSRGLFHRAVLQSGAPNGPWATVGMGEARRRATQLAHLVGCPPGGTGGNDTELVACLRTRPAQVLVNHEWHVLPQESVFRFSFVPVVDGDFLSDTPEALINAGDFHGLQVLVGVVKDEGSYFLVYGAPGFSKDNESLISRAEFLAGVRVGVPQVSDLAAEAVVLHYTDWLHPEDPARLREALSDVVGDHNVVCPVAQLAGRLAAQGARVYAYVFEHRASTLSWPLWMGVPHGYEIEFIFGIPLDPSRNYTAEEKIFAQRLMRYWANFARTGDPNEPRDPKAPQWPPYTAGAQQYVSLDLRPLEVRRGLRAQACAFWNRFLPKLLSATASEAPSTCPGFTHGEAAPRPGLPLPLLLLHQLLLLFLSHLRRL
Assay Endpoint: pIC50

[[record]]
compound = "Cc1cccc(CN2CCC(CCC(=O)c3cc4c5c(c3)CCN5C(=O)CC4)CC2)c1 [compound 6]"
assay_system = "acetylcholinesterase of human erythrocyte origin (Homo sapiens)"
assay_endpoint = "pIC50"
endpoint_result = 7.72

[[record]]
compound = "CN(CCCCCCN(C)C(=O)Oc1ccc[n+](C)c1)C(=O)Oc1ccc[n+](C)c1 [Distigmine, reference compound]"
assay_system = "acetylcholinesterase of human erythrocyte origin (Homo sapiens)"
assay_endpoint = "pIC50"
endpoint_result = 6.14

[[record]]
compound = "Cc1ccccc1CN1CCC(CCC(=O)c2cc3c4c(c2)CCN4C(=O)CC3)CC1 [compound 7]"
assay_system = "acetylcholinesterase of human erythrocyte origin (Homo sapiens)"
assay_endpoint = "pIC50"
endpoint_result = 7.66


All values here come from patent US8252814B2.
